Data credit: patent US9732063B2

These compounds were tested on UniProt Q16539; IC50 is the recorded read-out.
Sequence (Q16539 whole entry): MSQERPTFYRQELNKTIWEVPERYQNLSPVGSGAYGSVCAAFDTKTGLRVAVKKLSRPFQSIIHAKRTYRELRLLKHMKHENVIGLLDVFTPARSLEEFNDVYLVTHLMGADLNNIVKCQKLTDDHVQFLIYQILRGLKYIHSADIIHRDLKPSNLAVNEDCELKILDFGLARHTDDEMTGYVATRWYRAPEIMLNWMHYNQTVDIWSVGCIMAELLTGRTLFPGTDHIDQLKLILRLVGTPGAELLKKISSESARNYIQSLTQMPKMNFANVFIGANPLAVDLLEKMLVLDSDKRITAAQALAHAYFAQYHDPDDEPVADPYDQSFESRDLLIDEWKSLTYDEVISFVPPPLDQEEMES
Number in nM, nothing else.

Some compounds with recorded IC50:
Cc1ccc(-n2nc(C(C)C)cc2NC(=O)Nc2ccc(Oc3ccnc(Nc4cccc(OS(C)(=O)=O)c4)n3)c3ccccc23)cc1 [Example 11]: 50
COc1cc(Nc2nccc(Oc3ccc(NC(=O)Nc4cc(C(C)(C)C)nn4-c4ccc(C)cc4)c(Cl)c3Cl)n2)cc(OCCOCCOCCO)c1 [Example 71]: 740

Let us examine a further case.
Observed IC50 on UniProt Q16539, entry COCCOCCOCCOc1cc(Nc2nccc(Oc3ccc(NC(=O)Nc4cc(C(F)(F)C(F)(F)F)nn4-c4ccc(C)cc4)c4ccccc34)n2)cc(OC)c1 [Example 39] , equals 433
